Sourced from patent US6413947B1

# reported melting point; entries follow

Solved entries:
> print(dat)
                                   compound        recorded.value
1  Cc1ccc(-c2ccc3c(c2)C=C(C(=O)Nc2ccc(C[N+](C)(C)C4CCOCC4)cc2)CCS3)cc1.[I-] [Compound 241]  220 to 222 °C (dec.)
2  CN(C)c1ccc(-c2ccc3c(c2)C=C(C(=O)Nc2ccc(CP4(=O)CCCCC4)cc2)CCO3)cc1 [Compound 154]  293 to 294 °C (dec.)
3  Cc1ccc(-c2ccc3c(c2)C=C(C(=O)Nc2ccc(CN4CCN(c5ncccn5)CC4)cc2)CC3)cc1 [Compound 42]         203 to 204 °C
4  Cc1ccc(-c2cccc(/C=C/C(=O)Nc3ccc(-c4ccccn4)cc3)c2)cc1 [Compound 188]         220 to 222 °C
5  Cc1ccc(-c2ccc3c(c2)C=C(C(=O)Nc2ccc(CN4CCCCC4)cc2)C3)cc1 [Compound 60]         219 to 220 °C

Form field: reported melting point of O=C(Nc1ccc(CCN2CCCCC2)cc1)C1=Cc2cc(-c3ccccc3)ccc2CC1 [Compound 9]
157 to 159 °C

Form field: reported melting point of Cc1csc(-c2ccc3c(c2)C=C(C(=O)Nc2ccc(CN(C)C4CCOCC4)cc2)CCO3)c1 [Compound 292]
147 to 148 °C

Form field: reported melting point of O=C(Nc1ccc(CN2CCCCC2)cc1)C1=Cc2cc(C3CCCCC3)ccc2CC1 [Compound 1]
180 to 181 °C

Form field: reported melting point of Cc1ccc(-c2ccc3c(c2)C=C(C(=O)Nc2ccc(C(O)c4ccccn4)cc2)C(C)O3)cc1 (stereo not drawn) [Compound 202]
202 to 205 °C

----------
# reported melting point; entries follow

Solved entries:
> print(dat)
                              record.smiles  recorded.value
1  CN(Cc1ccc(NC(=O)C2=Cc3cc(-c4ccc(C(C)(C)C)cc4)ccc3OCC2)cc1)C1CCOCC1   193 to 194 °C
2  Cc1ccc(-c2ccc3c(c2)C=C(C(=O)Nc2ccc(CNc4ccccc4)cc2)CCO3)cc1   157 to 158 °C
3  CN(Cc1ccc(NC(=O)C2=Cc3cc(-c4ccc(OC(F)(F)F)cc4)ccc3OCC2)cc1)C1CCOCC1   187 to 188 °C

Form field: reported melting point of CN(Cc1ccc(NC(=O)/C=C/c2ccc(-c3ccc(C(C)(C)C)cc3)s2)cc1)C1CCOCC1
216 to 220 °C

----------
# reported melting point; entries follow

Solved entries:
> print(dat)
                                   compound  recorded.value
1  Cc1ccc(-c2cccc(/C=C/C(=O)Nc3ccc(CN4CCCCC4CCO)cc3)c2)cc1 (stereo not shown)   142 to 143 °C
2  Cc1ccc(-c2ccc3c(c2)C=C(C(=O)Nc2ccc(C[S+]([O-])Cc4ccccc4)cc2)CCO3)cc1 (stereo not shown)   208 to 209 °C

Form field: reported melting point of COc1ccc[n+]([O-])c1C(O)c1ccc(NC(=O)C2=Cc3cc(-c4ccc(C)cc4)ccc3OCC2)cc1 (stereo not shown)
242 °C (dec.)

Form field: reported melting point of O=C(C=Cc1cccc(-c2ccccc2)c1)Nc1ccc(CN2CCCCC2)cc1
159 to 160 °C

Form field: reported melting point of Cc1ccc(-c2ccc3c(c2)C=C(C(=O)Nc2ccc(Cc4ncccc4O)cc2)CCO3)cc1
285 to 288 °C

Form field: reported melting point of Cc1ccc(-c2ccc3c(c2)C=C(C(=O)Nc2ccc(CN(C)C4CCOCC4)cc2)CCO3)s1
129 to 130 °C

Form field: reported melting point of Cc1ccc(-c2ccc3c(c2)C=C(C(=O)Nc2ccc(Cc4c(O)ccc[n+]4[O-])cc2)CCO3)cc1
254 °C (dec.)
